target: Voltage-dependent L-type calcium channel subunit alpha-1C (Rattus norvegicus, UniProt P22002); note: assay procedure not described here
Sequence (P22002 whole entry): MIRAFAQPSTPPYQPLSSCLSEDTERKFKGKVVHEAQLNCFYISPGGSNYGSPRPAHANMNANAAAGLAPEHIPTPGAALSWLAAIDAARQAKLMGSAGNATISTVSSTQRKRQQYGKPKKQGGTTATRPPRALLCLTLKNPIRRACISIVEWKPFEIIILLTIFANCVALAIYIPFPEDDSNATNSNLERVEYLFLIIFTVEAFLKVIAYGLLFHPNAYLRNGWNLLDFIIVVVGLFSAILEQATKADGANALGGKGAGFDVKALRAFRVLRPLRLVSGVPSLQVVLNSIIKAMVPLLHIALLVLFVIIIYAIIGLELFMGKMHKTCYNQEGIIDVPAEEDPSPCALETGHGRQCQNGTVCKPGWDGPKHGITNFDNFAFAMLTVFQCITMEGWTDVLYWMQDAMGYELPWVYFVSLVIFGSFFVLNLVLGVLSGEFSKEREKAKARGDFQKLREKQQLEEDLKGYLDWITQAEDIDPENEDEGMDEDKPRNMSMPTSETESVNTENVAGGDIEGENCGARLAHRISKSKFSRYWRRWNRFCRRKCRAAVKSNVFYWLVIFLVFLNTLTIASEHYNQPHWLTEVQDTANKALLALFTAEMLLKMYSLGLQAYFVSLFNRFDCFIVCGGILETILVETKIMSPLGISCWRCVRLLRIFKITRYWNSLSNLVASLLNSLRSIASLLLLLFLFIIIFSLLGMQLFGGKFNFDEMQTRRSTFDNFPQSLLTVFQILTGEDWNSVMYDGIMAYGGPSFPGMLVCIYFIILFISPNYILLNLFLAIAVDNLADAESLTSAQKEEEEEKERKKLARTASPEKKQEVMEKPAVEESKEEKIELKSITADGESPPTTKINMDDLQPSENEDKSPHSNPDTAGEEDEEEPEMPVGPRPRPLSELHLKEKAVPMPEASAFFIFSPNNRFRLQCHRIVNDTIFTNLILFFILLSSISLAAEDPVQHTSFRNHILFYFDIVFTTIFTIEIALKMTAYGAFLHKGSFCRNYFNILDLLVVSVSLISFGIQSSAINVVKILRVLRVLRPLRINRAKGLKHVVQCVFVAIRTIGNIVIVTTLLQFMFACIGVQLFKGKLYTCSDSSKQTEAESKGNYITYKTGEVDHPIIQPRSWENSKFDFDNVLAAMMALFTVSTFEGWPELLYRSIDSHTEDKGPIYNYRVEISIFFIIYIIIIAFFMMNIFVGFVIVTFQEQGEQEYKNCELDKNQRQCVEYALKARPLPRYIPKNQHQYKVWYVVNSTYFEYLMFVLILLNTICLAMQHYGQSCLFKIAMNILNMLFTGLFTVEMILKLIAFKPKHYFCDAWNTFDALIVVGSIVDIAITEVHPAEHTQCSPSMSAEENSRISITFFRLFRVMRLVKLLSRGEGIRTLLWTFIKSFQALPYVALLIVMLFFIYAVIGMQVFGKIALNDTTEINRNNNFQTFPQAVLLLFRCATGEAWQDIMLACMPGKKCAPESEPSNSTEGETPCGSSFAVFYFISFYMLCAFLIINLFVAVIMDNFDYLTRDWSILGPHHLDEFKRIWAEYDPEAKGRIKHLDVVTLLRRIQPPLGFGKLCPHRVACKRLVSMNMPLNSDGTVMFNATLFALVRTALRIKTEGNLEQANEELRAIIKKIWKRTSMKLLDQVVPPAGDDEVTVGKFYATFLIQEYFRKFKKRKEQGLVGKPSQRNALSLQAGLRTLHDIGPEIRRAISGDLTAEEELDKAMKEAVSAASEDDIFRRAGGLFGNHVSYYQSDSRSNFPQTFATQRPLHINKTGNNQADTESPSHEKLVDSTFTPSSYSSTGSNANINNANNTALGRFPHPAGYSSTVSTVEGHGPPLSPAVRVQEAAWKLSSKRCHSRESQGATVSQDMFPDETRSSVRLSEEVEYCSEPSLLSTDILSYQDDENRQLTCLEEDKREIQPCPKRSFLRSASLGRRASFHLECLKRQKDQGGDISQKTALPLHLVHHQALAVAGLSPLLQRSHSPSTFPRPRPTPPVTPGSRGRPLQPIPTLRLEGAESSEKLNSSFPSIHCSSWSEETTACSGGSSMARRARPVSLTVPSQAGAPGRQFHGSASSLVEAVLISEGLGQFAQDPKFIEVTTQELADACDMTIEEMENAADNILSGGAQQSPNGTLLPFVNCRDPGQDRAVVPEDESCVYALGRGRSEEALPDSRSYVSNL
Type: functional
value-kind: AC50

Request: Which AC50 value belongs to COc1ccccc1OCCNCC(O)COc1cccc2[nH]c3ccccc3c12 (stereo not drawn) ?
Result: > 10 µM

Request: Which AC50 value belongs to C=C[C@@]1(C)CC(=O)[C@]2(O)[C@@]3(C)[C@@H](O)CCC(C)(C)[C@@H]3[C@H](O)[C@H](OC(C)=O)[C@@]2(C)O1 ?
Result: > 30 µM

Request: Which AC50 value belongs to CCc1cc(C(N)=S)ccn1 [ETHIONAMIDE] ?
Result: > 10 µM

Request: Which AC50 value belongs to CC(=O)OCC(=O)[C@@]1(O)[C@H](C)C[C@H]2[C@@H]3CCC4=CC(=O)C=C[C@]4(C)[C@@]3(F)[C@@H](O)C[C@@]21C [DEXAMETHASONE ACETATE] ?
Result: > 10 µM

Request: Which AC50 value belongs to C[N@+]1(CCF)[C@@H]2CC[C@H]1C[C@@H](OC(=O)C(O)(c1ccccc1)c1ccccc1)C2 ?
Result: > 30 µM

Request: Which AC50 value belongs to CN1C(C(=O)Nc2ccccn2)=C(O)c2ccccc2S1(=O)=O ?
Result: > 10 µM

Request: Which AC50 value belongs to O=C1CCc2cc(OCCCCc3nnnn3C3CCCCC3)ccc2N1 ?
Result: > 30 µM

Request: Which AC50 value belongs to CC1=C(C)C(=O)C(C(CCCCCC(=O)O)c2ccccc2)=C(C)C1=O (stereo not drawn) ?
Result: > 30 µM
